# assay_protocol: Viability qHTS for spleen associated tyrosine kinase inhibitor (SYKi) drug resistant MV4-11 cells (AID 1963824); also: nearly all actives have a fitted effect of over 35% in size
# settings: SYKi-resistant MV4-11 viability, CellTiter-Glo, 72 h; series mostly up to 45 µM
Results filed as inconclusive are left out. Active and inactive are the calls of the source. Calls follow the shape of the dose curve; as a rule, active = well fitted cell-killing curve with a large enough effect; inconclusive = small, poorly fitted or top-dose-only effect, or effect the other way; inactive = no such curve, though single readings can be large or run the other way.
Lab note: assign the record to one of 1.0 (active), 0.0 (inactive)

Cc1cc(CNC(=O)c2cc(C(=O)NCc3ccc(F)c(C)c3)ncn2)ccc1F ... 0.0

Problem: Dear colleague, could you share the recorded outcome for `COc1cc(C(=O)NC(N)=Nc2ccc(C)c(NC(=O)c3ccc(-c4ccccc4)cc3)c2)cc(OC)c1OC` when you have a moment?
Result: 1.0

Problem: And COC1C(=O)CCC2(CO2)C1(O)C1(C)OC1CC=C(C)C (centres undefined) ?
Result: 0.0

Problem: And CC1CCCC(O)CC(=O)c2c(O)cc(O)cc2CC(=O)O1 (centres undefined) ?
Result: 1.0

Problem: And `C[C@@H]1O[C@@H](O[C@H]2[C@@H]3C=CO[C@@H](O[C@@H]4O[C@H](CO)[C@@H](O)[C@H](O)[C@H]4O)[C@@H]3[C@@]3(CO)O[C@@H]23)[C@H](OC(=O)/C=C/c2ccccc2)[C@H](O)[C@H]1O` ?
Result: 0.0

Problem: And `CCCCCCCCCCCCCCCCO` ?
Result: 0.0

Problem: And C=C(C)C(=O)O[C@H]1C[C@@](C)(O)C(=O)CC(O)/C(C)=C\[C@H]2OC(=O)C(=C)[C@H]12 (some centres undefined) ?
Result: 1.0

Problem: And CCC(C)CC(=O)OC1C(=O)C(CO)=CC(O)C1C(C)C (centres undefined) ?
Result: 1.0

Problem: And Oc1cccc(C2NC(=S)Nc3cccc(F)c32)c1 (centres undefined) ?
Result: 1.0

###

# assay_protocol: Quantitative highthroughput screen to assess conditional lethalithy of SEM cells grown in RPMI1640 with dialyzed fetal bovine serum (RPMI+ds) (AID 1963884); also: nearly all actives have a fitted effect of over 35% in size;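 as to viability: 100% = DMSO control wells and 0% = empty wells without cells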
# settings: SEM B-ALL cells, RPMI+dialyzed FBS, CellTiter-Glo viability, 48 h; series mostly up to 45.8 µM
Inconclusive results are not listed. Active and inactive are the calls of the source. Calls follow the shape of the dose curve; as a rule, active = well fitted cell-killing curve with a large enough effect; inconclusive = small, poorly fitted or top-dose-only effect, or effect the other way; inactive = no such curve, though single readings can be large or run the other way.
Lab note: assign the record to one of yes (1) for active, no (0) for inactive

As a guide, the following entries are already answered.
CN(C)CCCN=c1c2ccccc2n(C)c2[nH]c(=O)n(C)c(=O)c12 ... yes (1)
C[C@H](CCC(=O)O)[C@H]1CC[C@H]2[C@@H]3[C@H](O)C[C@@H]4C[C@H](O)CC[C@]4(C)[C@@H]3CC[C@]12C ... no (0)
CC(=O)OCC(CCn1cnc2cnc(N)nc21)COC(C)=O ... no (0)
CC(C)[C@H](N)C(=O)OCCOCn1cnc2c(=O)[nH]c(N)nc21 ... no (0)

Turning now to a further record.
Problem: Dear colleague, could you share the recorded outcome for `COC(=O)[C@@H]1[C@H]2C[C@@H]3c4[nH]c5ccccc5c4CCN3C[C@@H]2CC[C@@H]1O` when you have a moment?
Result: no (0)

###

# assay_protocol: Viability qHTS for spleen associated tyrosine kinase inhibitor (SYKi) drug resistant MV4-11 cells (AID 1963824); also: nearly all actives have a fitted effect of over 35% in size
# settings: SYKi-resistant MV4-11 viability, CellTiter-Glo, 72 h; series mostly up to 45 µM
Records with an inconclusive call do not appear. The source made the active and inactive calls. The call rests on the fitted dose curve; in most records, active means well fitted cell-killing curve with a large enough effect; inconclusive means small, poorly fitted or top-dose-only effect, or effect the other way; inactive means no such curve, though single readings can be large or run the other way.
Lab note: assign the record to one of true (active), false (inactive)

As a guide, the following entries are already answered.
CN(C)c1ccc(C(=O)NCCCCCCC(=O)NO)cc1 ... true
CCOc1cc(NC(C)=O)ccc1C(=O)OC ... false
O=C(/C=C/c1ccc(O)cc1)OCC1OC(O)C(OC2OC(CO)C(O)C(O)C2O)C(O)C1O (centres undefined) ... false

Problem: Dear colleague, could you share the recorded outcome for `CC(=O)CC/C=C(\C)CC/C=C(\C)CC/C=C(\C)CCC=C(C)C` when you have a moment?
Result: false

Problem: And `Cc1[nH]nc(C(F)(F)F)c1Cc1sc2c(c1C(=O)N1C[C@](C)(O)CO1)c(=O)n(C)c(=O)n2C(C)C` ?
Result: false

###

# assay_protocol: Quantitative highthroughput screen to assess conditional lethalithy of P12 Ichikawa cells grown in RPMI1640 with dialyzed fetal bovine serum (RPMI+ds) (AID 1963880); also: nearly all actives have a fitted effect of over 35% in size;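 as to viability: 100% = DMSO wells and 0% = empty wells on each plate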
# settings: ATP luminescence, 48 h; P12-Ichikawa viability; series mostly up to 45.8 µM
Records with an inconclusive call do not appear. The source made the active and inactive calls. Calls come from the whole dose curve; as a rule, active = well fitted cell-killing curve with a large enough effect; inconclusive = small, poorly fitted or top-dose-only effect; inactive = flat fitted curve, though single readings scatter.
Lab note: assign the record to one of active, inactive

As a guide, the following entries are already answered.
Cc1cccc(Nc2ccncc2S(=O)(=O)NC(=O)NC(C)C)c1 ... inactive
c1cc(CN2CCCNCCNCCCNCC2)ccc1CN1CCCNCCNCCCNCC1 ... inactive
Cc1n[nH]c(C)c1Cc1sc2c(c1C(=O)N1C[C@H](O)CO1)c(=O)n(C)c(=O)n2CC(C)C ... inactive
COc1ccc2c(c1OC)C(=O)OC2[C@H]1c2c(cc3c(c2OC)OCO3)CCN1C (stereo not given in full) ... active

Turning now to a further record.
Problem: Dear colleague, could you share the recorded outcome for `S=P(N1CC1)(N1CC1)N1CC1` when you have a moment?
Result: inactive

###

# assay_protocol: Quantitative highthroughput screen to assess conditional lethalithy of P12 Ichikawa cells grown in Human Plasma-Like Medium with dialyzed fetal bovine serum (HPLM+ds) (AID 1963879); also: nearly all actives have a fitted effect of over 35% in size
# settings: ATP luminescence, 48 h; viability; series mostly up to 45.8 µM
Records with an inconclusive call do not appear. Active and inactive are the calls of the source. Calls follow the shape of the dose curve; as a rule, active = well fitted cell-killing curve with a large enough effect; inconclusive = small, poorly fitted or top-dose-only effect; inactive = flat fitted curve, though single readings scatter.
Lab note: assign the record to one of active, inactive

As a guide, the following entries are already answered.
CC1(C)C(=O)N(CCN2CCC(C(=O)c3ccc(F)cc3)CC2)c2ccccc21 ... inactive
CCn1c(-c2nonc2N)nc2c(C#CC(C)(C)O)ncc(OC[C@H]3CCCNC3)c21 ... active
CCCCCCCCCCCCCCCC(=O)OC[C@@H](NC(=O)C(Cl)Cl)[C@H](O)c1ccc([N+](=O)[O-])cc1 ... inactive
Cc1ccc2c(=O)c3cccc(CC(=O)O)c3oc2c1C ... inactive
COc1ccc2c(c1)c(CC(=O)O)c(C)n2C(=O)c1ccc(Cl)cc1 ... inactive

Problem: Dear colleague, could you share the recorded outcome for `O=C(Nc1ccccc1)Nc1ccc(-c2ccc(C(=O)[C@H]3CCC[C@H]3C(=O)O)cc2)cc1` when you have a moment?
Result: inactive

Problem: And `Cc1ccc(C(=O)Nc2cccc(C(F)(F)F)c2)cc1Nc1nc(-c2cccnc2)nc2c1cnn2C` ?
Result: inactive

Problem: And `Cc1nc2c([nH]1)CCN(C(=O)c1ccc(NC(=O)c3ccccc3-c3ccccc3)cc1)c1ccccc1-2` ?
Result: inactive

Problem: And `CN1C(=O)C[C@H](C(=O)N[C@@H](Cc2cnc[nH]2)C(=O)N2CCC[C@@H]2C(N)=O)NC1=O` ?
Result: inactive

Problem: And O=C(O)CCC1CCC(c2cc(F)ccc2F)(S(=O)(=O)c2ccc(Cl)cc2)CC1 (stereo not given) ?
Result: active

Problem: And `COc1cc2nccc(Oc3ccc(NC(=O)Nc4ccc(F)cc4F)c(F)c3)c2cc1OC` ?
Result: active

Problem: And `CN(C)CCCN=c1c2ccccc2n(C)c2[nH]c(=O)n(C)c(=O)c12` ?
Result: active

Problem: And `CN(C)c1nc(N(C)C)nc(N(C)C)n1` ?
Result: inactive

###

# assay_protocol: Viability qHTS for spleen associated tyrosine kinase inhibitor (SYKi) drug resistant MV4-11 cells (AID 1963824); also: nearly all actives have a fitted effect of over 35% in size
# settings: SYKi-resistant MV4-11 viability, CellTiter-Glo, 72 h; series mostly up to 45 µM
Records with an inconclusive call do not appear. The source made the active and inactive calls. Calls come from the whole dose curve; as a rule, active = well fitted cell-killing curve with a large enough effect; inconclusive = small, poorly fitted or top-dose-only effect, or effect the other way; inactive = no such curve, though single readings can be large or run the other way.
Catalogue of viability, % of control readings, one per entry.

CC1(C)CCC2(C(=O)O)C(O)CC3(C)C(=CCC4C5(C)CCC(OC6OC(CO)C(O)C(O)C6OC6OC(CO)C(O)C(O)C6OC6OCC(O)(CO)C6O)C(C)(C)C5CCC43C)C2C1 (stereo not drawn) ... 84.8% [at 9.25 µM] (inactive)

Problem: Which viability, % of control value is on record for `COC(=O)CC[C@H](NC(=O)[C@H](CC(C)C)NC(=O)OCc1ccccc1)C(=O)N[C@@H](Cc1cnc[nH]1)C(=O)N[C@@H](CC(=O)OC)C(=O)CF` ?
Result: 91.2% [at 9.25 µM] (inactive)

Problem: And `CC(=O)C1=C(C)N(c2cccc(C(F)(F)F)c2)C(=O)N[C@H]1c1ccc(C#N)nc1` ?
Result: 87% [at 9.25 µM] (inactive)

###

# assay_protocol: Viability qHTS for spleen associated tyrosine kinase inhibitor (SYKi) drug resistant MV4-11 cells (AID 1963824); also: nearly all actives have a fitted effect of over 35% in size
# settings: SYKi-resistant MV4-11 viability, CellTiter-Glo, 72 h; series mostly up to 45 µM
Records with an inconclusive call do not appear. The source made the active and inactive calls. Calls come from the whole dose curve; as a rule, active = well fitted cell-killing curve with a large enough effect; inconclusive = small, poorly fitted or top-dose-only effect, or effect the other way; inactive = no such curve, though single readings can be large or run the other way.
Lab note: assign the record to one of active, inactive

As a guide, the following entries are already answered.
COc1ccc(N2CCOCC2)c2sc(NC(=O)N3CCC(C)(O)CC3)nc12 ... inactive
CC1(C)COC(=O)[C@@H]1O[C@@H]1O[C@H](CO)[C@@H](O)[C@H](O)[C@H]1O ... inactive

Problem: Dear colleague, could you share the recorded outcome for C=C1C[C@@]23CCC4[C@@](C)(CCC[C@@]4(C)C(=O)OC)C2CC[C@@H]1C3 (stereo partly drawn) when you have a moment?
Result: active

Problem: And COc1cc(C(=O)NC2CCCNC2)cc(OC)c1OC (stereo not drawn) ?
Result: inactive

Problem: And `CN(C)CCc1c[nH]c2ccc(CS(=O)(=O)N3CCCC3)cc12` ?
Result: inactive
